- experiment_notes: Tmax in Wistar rat plasma at 30 mg/kg, po
- Format: ADME, organism-based

compound_smiles: C[C@H](N[C@@H](CCc1ccccc1)C(=O)O)C(=O)N1C[C@@H](NC(=O)C[C@H](N)Cc2cc(F)c(F)cc2F)C[C@H]1C(=O)O
Tmax (h): 1.5
//
compound_smiles: CCC[C@H](N[C@@H](CCc1ccccc1)C(=O)O)C(=O)N1C[C@@H](NC(=O)C[C@H](N)Cc2cc(F)c(F)cc2F)C[C@H]1C(=O)O
Tmax (h): 3.3
//
compound_smiles: CCCC[C@H](N[C@@H](CCc1ccccc1)C(=O)O)C(=O)N1C[C@@H](NC(=O)C[C@H](N)Cc2cc(F)c(F)cc2F)C[C@H]1C(=O)O
Tmax (h): 2
//
compound_smiles: CC[C@H](N[C@@H](CCc1ccccc1)C(=O)O)C(=O)N1C[C@@H](NC(=O)C[C@H](N)Cc2cc(F)c(F)cc2F)C[C@H]1C(=O)O
Tmax (h): 1.67

----------
pIC50: −log10 of the molar value.
pIC50, Dipeptidyl peptidase 2 (Homo sapiens): measured values

compound_smiles: CCCC[C@H](N[C@@H](CCc1ccccc1)C(=O)O)C(=O)N1C[C@@H](NC(=O)C[C@H](N)Cc2cc(F)c(F)cc2F)C[C@H]1C(=O)O
study_target: Dipeptidyl peptidase 2 (Homo sapiens)
pIC50: < 4.00
//
compound_smiles: CC[C@H](N[C@@H](CCc1ccccc1)C(=O)O)C(=O)N1C[C@@H](NC(=O)C[C@H](N)Cc2cc(F)c(F)cc2F)C[C@H]1C(=O)O
study_target: Dipeptidyl peptidase 2 (Homo sapiens)
pIC50: < 4.00

----------
- study_target: Cytochrome P450 3A4 (Homo sapiens, UniProt P08684)
- Sequence (P08684 whole entry): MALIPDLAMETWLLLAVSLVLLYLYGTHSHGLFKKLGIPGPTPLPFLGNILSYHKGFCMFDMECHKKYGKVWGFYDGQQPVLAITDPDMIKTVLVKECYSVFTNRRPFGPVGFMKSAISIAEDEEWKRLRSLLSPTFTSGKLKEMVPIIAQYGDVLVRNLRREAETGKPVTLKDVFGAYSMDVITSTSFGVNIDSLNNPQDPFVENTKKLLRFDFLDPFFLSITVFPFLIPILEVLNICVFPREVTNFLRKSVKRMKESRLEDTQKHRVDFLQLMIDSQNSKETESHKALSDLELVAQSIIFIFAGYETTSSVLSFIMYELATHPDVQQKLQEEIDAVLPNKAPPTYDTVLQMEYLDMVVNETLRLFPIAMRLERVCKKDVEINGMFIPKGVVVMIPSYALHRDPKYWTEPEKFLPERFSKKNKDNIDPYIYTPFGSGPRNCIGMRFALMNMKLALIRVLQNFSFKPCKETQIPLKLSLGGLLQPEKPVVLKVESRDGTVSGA
- experiment_notes: Inhibition of CYP3A4 (unknown origin) up to 10 uM
- Assay type: ADME
property_measured: inhibition (INH)

compound_smiles: C[C@H](N[C@@H](CCc1ccccc1)C(=O)O)C(=O)N1C[C@@H](NC(=O)C[C@H](N)Cc2cc(F)c(F)cc2F)C[C@H]1C(=O)O
property_measured: inhibition (INH)
observed: Not Active
--
compound_smiles: CC[C@H](N[C@@H](CCc1ccccc1)C(=O)O)C(=O)N1C[C@@H](NC(=O)C[C@H](N)Cc2cc(F)c(F)cc2F)C[C@H]1C(=O)O
property_measured: inhibition (INH)
observed: Not Active
--
compound_smiles: CCC[C@H](N[C@@H](CCc1ccccc1)C(=O)O)C(=O)N1C[C@@H](NC(=O)C[C@H](N)Cc2cc(F)c(F)cc2F)C[C@H]1C(=O)O
property_measured: inhibition (INH)
observed: Not Active
--
compound_smiles: CCCC[C@H](N[C@@H](CCc1ccccc1)C(=O)O)C(=O)N1C[C@@H](NC(=O)C[C@H](N)Cc2cc(F)c(F)cc2F)C[C@H]1C(=O)O
property_measured: inhibition (INH)
observed: Not Active

----------
- study_target: Angiotensin-converting enzyme (Rattus norvegicus)
- Sequence (P47820 whole entry): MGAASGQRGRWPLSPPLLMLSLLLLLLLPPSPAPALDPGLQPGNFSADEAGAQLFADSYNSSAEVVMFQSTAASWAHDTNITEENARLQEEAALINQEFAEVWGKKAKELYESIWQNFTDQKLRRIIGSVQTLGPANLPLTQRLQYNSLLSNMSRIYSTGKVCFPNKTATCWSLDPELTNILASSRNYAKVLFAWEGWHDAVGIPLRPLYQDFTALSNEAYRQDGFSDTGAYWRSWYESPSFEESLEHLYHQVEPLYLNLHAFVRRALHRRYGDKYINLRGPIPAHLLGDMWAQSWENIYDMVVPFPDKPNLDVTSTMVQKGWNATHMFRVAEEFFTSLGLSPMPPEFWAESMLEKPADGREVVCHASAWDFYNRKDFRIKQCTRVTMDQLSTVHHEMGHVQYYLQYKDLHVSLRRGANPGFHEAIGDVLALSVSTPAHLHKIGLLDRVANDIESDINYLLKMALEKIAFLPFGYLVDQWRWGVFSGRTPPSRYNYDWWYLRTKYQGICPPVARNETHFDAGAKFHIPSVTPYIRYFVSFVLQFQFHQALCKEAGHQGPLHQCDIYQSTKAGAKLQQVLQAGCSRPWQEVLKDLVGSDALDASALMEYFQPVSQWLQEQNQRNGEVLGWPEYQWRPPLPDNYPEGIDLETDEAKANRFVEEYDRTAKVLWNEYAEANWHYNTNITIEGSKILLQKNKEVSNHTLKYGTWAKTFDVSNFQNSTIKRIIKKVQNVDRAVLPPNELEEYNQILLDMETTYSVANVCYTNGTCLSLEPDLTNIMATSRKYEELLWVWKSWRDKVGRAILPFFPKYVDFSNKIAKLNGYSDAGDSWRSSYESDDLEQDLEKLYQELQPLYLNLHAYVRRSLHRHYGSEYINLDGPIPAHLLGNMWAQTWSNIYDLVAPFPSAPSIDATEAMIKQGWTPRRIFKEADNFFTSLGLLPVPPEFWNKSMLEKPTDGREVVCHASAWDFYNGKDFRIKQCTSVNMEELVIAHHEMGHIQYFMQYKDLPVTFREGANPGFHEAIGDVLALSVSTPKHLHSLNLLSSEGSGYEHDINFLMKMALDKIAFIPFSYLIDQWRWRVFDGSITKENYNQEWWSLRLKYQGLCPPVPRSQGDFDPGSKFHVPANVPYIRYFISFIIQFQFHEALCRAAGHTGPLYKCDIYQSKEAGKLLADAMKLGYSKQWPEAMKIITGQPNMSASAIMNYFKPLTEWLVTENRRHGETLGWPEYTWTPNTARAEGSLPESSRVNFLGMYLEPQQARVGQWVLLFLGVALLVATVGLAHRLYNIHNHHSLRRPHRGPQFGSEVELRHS
- experiment_notes: Inhibition of Wistar rat plasma ACE
pIC50: −log10 of the molar value.
Measured pIC50 accompanies every entry in the list below.

compound_smiles: CC[C@H](N[C@@H](CCc1ccccc1)C(=O)O)C(=O)N1C[C@@H](NC(=O)C[C@H](N)Cc2cc(F)c(F)cc2F)C[C@H]1C(=O)O
pIC50: 7.62
//
compound_smiles: CCCC[C@H](N[C@@H](CCc1ccccc1)C(=O)O)C(=O)N1C[C@@H](NC(=O)C[C@H](N)Cc2cc(F)c(F)cc2F)C[C@H]1C(=O)O
pIC50: 5.55
//
compound_smiles: CCC[C@H](N[C@@H](CCc1ccccc1)C(=O)O)C(=O)N1C[C@@H](NC(=O)C[C@H](N)Cc2cc(F)c(F)cc2F)C[C@H]1C(=O)O
pIC50: 6.05
//
compound_smiles: C[C@H](N[C@@H](CCc1ccccc1)C(=O)O)C(=O)N1C[C@@H](NC(=O)C[C@H](N)Cc2cc(F)c(F)cc2F)C[C@H]1C(=O)O
pIC50: 6.48
